tested on: H4; assay: Luminescence Cell-Based Dose Response HTS to Identify Activators of 5'UTR Stem-Loop Driven Prion Protein mRNA Translation in H4 Neuroglioblastoma Cells. [Related pubchem assays: 1829 (Project Summary), 1814 (Primary HTS)]; type: functional; conditions: Homo sapiens
Calls of active or inactive are those of the source.
Readings of EC50 for the listed compounds

# molecular-string, EC50
measured = [
    ("O=C(CNS(=O)(=O)c1ccccc1)OCC(=O)c1ccc(OC(=O)c2ccccc2)cc1", "> 120 µM (not active)"),
    ("Cc1ccc(/C=N/n2cc(-c3ccccc3)nc2S)s1", "20 µM (active)"),
    ("COc1ccc2[nH]cc(C(=O)CN3CCC(C)CC3)c2c1", "14.4 µM (active)"),
    ("N=C(NOC(=O)Cc1cccs1)c1ccccc1", "9.96 µM (active)"),
    ("CC(=O)Oc1ccc(C)cc1-n1nc2ccccc2n1", "2.63 µM (active)"),
]

---

tested on: Vero; test: cells; format: functional; settings: Chlorocebus sabaeus
Active and inactive are the calls of the source.
Readings of CC50 for the listed compounds

# compound, CC50
measured = [
    ("Cc1ccc(S(=O)(=O)Nc2cccc3cccnc23)c([N+](=O)[O-])c1", "7.85 µM (active)"),
    ("COc1ccc(C(=O)/C=C/c2ccc(OC)c(Cn3nnc4ccccc43)c2)cc1", "15.2 µM (active)"),
    ("O=c1nc(Nc2ccc(OCc3ccccc3)cc2)sc2ncccc12", "> 25 µM (active)"),
    ("CN1CCN(c2ccc3sc(-n4ccc5ccccc54)nc3c2)CC1", "> 25 µM (active)"),
    ("C=C(C(=O)c1ccccc1)C(c1ccccc1)C(C)C(=O)c1ccccc1 (stereo unspecified)", "17.8 µM (active)"),
    ("O=C(COc1ccccc1)NNC(=S)NC(=O)c1ccccc1", "> 25 µM (active)"),
]

---

target: Protein RecA (Mycobacterium tuberculosis); assay: Fluorescence Cell-Free Homogeneous Dose Retest to Identify Inhibitors of RecA-Intein Splicing Activity. [Related pubchem assays (depositor defined):AID2097, AID2223, AID489010, AID492950]; assay type: functional
Active and inactive are the calls of the source.
Possible outcomes: 1 (active), 0 (inactive)

# molecule, tested-target, label-class
records = [
    ("Cc1cnnn1-c1ccc(C(=O)CCl)cc1", "Protein RecA (Mycobacterium tuberculosis)", 1),
    ("CN(C1=C(NC(=O)c2ccccc2)C(=O)c2ccccc2C1=O)C1CCS(=O)(=O)C1 (stereo not given)", "Protein RecA (Mycobacterium tuberculosis)", 1),
    ("CN(CCc1cnn(C)c1)C(=O)C1CCC(=O)N(CC2CCCCC2)C1 (stereo not given)", "Protein RecA (Mycobacterium tuberculosis)", 0),
    ("COc1ccc(Nc2cnn(-c3nc4ccccc4s3)c(=O)c2Cl)cc1", "Protein RecA (Mycobacterium tuberculosis)", 1),
    ("CC(C)Cc1ccc(-c2cc(O)[nH]n2)cc1", "Protein RecA (Mycobacterium tuberculosis)", 1),
    ("O=C1C([O-])=C([n+]2ccccc2)C(=O)c2ccccc21", "Protein RecA (Mycobacterium tuberculosis)", 1),
    ("N#C/C(=C\\c1cccc(O)c1)c1nc2ccccc2o1", "Protein RecA (Mycobacterium tuberculosis)", 1),
    ("CC[n+]1c(/C=C2\\C=C(C)CC(C)(C)C2)sc2ccccc21", "Protein RecA (Mycobacterium tuberculosis)", 1),
    ("O=C(CCl)N(c1ccccc1)c1ccccc1", "Protein RecA (Mycobacterium tuberculosis)", 1),
    ("Cc1cc(O)c(C(C)C)cc1/N=C\\c1ccccc1O", "Protein RecA (Mycobacterium tuberculosis)", 1),
    ("CCCCCCCCCC[N+](C)(C)CC/C=C1/c2ccccc2Sc2ccc(Cl)cc21", "Protein RecA (Mycobacterium tuberculosis)", 1),
    ("COc1cc(NC(C)CCCN)c2ncccc2c1Oc1ccccc1 (stereo not given)", "Protein RecA (Mycobacterium tuberculosis)", 1),
    ("CCOc1ccc(C2C(C#N)=C(N)Oc3[nH]nc(C)c32)cc1OC(=O)C1CC1 (stereo not given)", "Protein RecA (Mycobacterium tuberculosis)", 1),
    ("O=C(NCCc1ccccc1)C(c1cccs1)N(C(=O)CCl)c1ccc(Cl)cc1 (stereo not given)", "Protein RecA (Mycobacterium tuberculosis)", 1),
    ("Cc1cc(=O)n(-c2ccc(C(=O)O)cc2)[nH]1", "Protein RecA (Mycobacterium tuberculosis)", 1),
    ("O=C1C(Cl)=C(NCC2CCCO2)C(=O)N1c1ccccc1 (stereo not given)", "Protein RecA (Mycobacterium tuberculosis)", 1),
    ("CCN(CC)C(=O)c1ccc2c(c1)C1C(Cl)C(Sc3ccccc3[N+](=O)[O-])CC1C(C(=O)O)N2 (stereo not given)", "Protein RecA (Mycobacterium tuberculosis)", 1),
    ("Cc1nnc(Sc2cc(NCCO)c([N+](=O)[O-])c3nonc23)s1", "Protein RecA (Mycobacterium tuberculosis)", 1),
    ("Cc1cc2c3c(c1)C(C)CC(C)(C)N3C(=O)C2=C(C#N)C#N (stereo not given)", "Protein RecA (Mycobacterium tuberculosis)", 1),
    ("COc1cc(/C=C/c2cc[n+](C)cc2)ccc1OCC(=O)Nc1ccc(Cl)c(Cl)c1", "Protein RecA (Mycobacterium tuberculosis)", 1),
    ("CS/C(=C\\[N+](=O)[O-])Nc1ccc(OC(F)(F)F)cc1", "Protein RecA (Mycobacterium tuberculosis)", 1),
    ("CCS(=O)(=O)c1ncc(Cl)c(C(=O)Nc2ccc(C)cc2)n1", "Protein RecA (Mycobacterium tuberculosis)", 1),
    ("O=S(=O)(Nc1ccc(O)c2ccccc12)c1ccc(F)cc1", "Protein RecA (Mycobacterium tuberculosis)", 1),
    ("COC(=O)c1c(NC(=O)/C=C/C(=O)O)sc(C)c1-c1ccc(C)c(C)c1", "Protein RecA (Mycobacterium tuberculosis)", 1),
]

---

tested on: HEK293; experiment: NOD1 signaling inhibitors, primary screen, cell-based, luminescence, uHTS (AID 1578); assay type: functional; conditions: Homo sapiens
The source made the active and inactive calls.
Readings of EC50 for the listed compounds
observed-property: EC50

# molecular-string, test-value
data = [
    ("Cc1ccc(NC(=O)CSc2ncnc3ccccc23)cc1S(=O)(=O)N1CCCCC1", "4.43 µM (active)"),
    ("COc1ccccc1OCCCOc1cccc(/C=C2\\SC(=O)NC2=O)c1", "9.43 µM (active)"),
    ("COc1ccc(CC2(CO)CCN(CC3=Cc4cc(Cl)ccc4OC3)CC2)cc1", "5.44 µM (active)"),
    ("Cc1oc(-c2ccccc2Cl)nc1CSc1nc(O)c2c(n1)CCCC2", "8.45 µM (active)"),
]

---

Readings of EC50 for the listed compounds
biological target: Peroxisome proliferator-activated receptor gamma/Nuclear receptor coactivator 2 (Homo sapiens); assay type: functional;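 note: agonist potency for raising coactivator recruitment to the receptor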
Sequence (P37231 whole entry): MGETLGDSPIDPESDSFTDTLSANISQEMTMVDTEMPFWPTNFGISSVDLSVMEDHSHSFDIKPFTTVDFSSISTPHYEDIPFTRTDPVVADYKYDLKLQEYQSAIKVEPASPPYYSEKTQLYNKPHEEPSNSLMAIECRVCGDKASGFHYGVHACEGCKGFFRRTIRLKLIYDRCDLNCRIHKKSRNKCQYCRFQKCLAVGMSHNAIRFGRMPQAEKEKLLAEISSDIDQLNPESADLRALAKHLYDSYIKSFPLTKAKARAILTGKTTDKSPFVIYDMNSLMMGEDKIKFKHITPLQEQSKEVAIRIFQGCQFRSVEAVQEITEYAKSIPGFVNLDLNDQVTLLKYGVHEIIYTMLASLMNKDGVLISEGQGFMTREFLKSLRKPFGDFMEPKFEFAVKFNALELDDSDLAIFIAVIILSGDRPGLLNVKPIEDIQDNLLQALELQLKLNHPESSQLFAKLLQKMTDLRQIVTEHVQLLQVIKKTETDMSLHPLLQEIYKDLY
Sequence (Q15596 whole entry, further chain): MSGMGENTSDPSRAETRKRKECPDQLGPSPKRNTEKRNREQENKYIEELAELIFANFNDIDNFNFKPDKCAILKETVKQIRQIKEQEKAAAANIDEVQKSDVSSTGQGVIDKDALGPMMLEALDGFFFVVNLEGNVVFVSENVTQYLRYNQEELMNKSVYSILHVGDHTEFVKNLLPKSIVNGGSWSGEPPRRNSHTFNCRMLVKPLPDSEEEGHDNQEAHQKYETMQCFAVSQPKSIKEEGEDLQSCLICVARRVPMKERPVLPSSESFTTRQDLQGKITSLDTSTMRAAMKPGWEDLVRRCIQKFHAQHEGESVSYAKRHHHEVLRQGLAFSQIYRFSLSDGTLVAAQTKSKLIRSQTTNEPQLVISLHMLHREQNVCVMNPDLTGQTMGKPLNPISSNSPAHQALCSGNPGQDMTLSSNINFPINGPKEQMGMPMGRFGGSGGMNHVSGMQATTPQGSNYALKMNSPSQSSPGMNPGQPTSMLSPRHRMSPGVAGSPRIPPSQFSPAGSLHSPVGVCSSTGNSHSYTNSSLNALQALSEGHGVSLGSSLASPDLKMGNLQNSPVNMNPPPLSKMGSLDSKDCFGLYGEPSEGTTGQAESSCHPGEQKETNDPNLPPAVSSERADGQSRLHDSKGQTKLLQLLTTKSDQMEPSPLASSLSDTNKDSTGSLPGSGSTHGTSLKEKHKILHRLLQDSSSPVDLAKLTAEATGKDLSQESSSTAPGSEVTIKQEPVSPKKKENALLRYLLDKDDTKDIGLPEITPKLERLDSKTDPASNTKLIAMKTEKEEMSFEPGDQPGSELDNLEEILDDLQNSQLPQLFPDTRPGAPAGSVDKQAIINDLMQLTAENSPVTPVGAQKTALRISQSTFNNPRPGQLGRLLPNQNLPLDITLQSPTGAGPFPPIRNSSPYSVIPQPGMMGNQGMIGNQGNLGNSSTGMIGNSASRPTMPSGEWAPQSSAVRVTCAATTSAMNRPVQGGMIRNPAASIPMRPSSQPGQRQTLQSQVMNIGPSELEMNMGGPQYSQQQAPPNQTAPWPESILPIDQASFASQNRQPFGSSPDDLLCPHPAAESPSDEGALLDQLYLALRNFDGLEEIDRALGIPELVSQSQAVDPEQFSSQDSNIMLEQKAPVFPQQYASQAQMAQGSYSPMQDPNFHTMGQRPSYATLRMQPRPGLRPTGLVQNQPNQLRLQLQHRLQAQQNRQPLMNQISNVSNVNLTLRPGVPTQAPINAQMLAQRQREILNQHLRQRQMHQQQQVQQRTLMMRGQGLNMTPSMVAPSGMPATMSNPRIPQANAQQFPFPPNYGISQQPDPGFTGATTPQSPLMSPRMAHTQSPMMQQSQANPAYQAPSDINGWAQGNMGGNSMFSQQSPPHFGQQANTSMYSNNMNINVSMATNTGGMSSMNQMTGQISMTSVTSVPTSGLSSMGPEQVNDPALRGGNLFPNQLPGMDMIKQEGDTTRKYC

# compound, EC50
data = [
    ("c1csc(Cc2nn3c(-c4n[nH]c5c4CCC5)nnc3s2)c1", "> 79.4 µM (not active)"),
    ("O=C(CCC1CCCN(C(=O)C2=CCCCC2)C1)N1CCN(c2ccccn2)CC1 (stereo unspecified)", "> 79.4 µM (not active)"),
    ("CCc1nnc(NS(=O)(=O)c2ccc(NC(=S)NC(=O)/C=C/c3cccs3)cc2)s1", "> 79.4 µM (not active)"),
    ("O=C(CSc1ncnc2c1nnn2-c1ccc(F)cc1)NCc1ccco1", "> 79.4 µM (not active)"),
    ("O=C(Nc1nc(-c2ccc(S(=O)(=O)N3CCCCCC3)cc2)cs1)c1cccs1", "14.6 µM (not active)"),
    ("Cc1ccc(NC(=O)CN(C)C(=S)NC2CC2)cc1", "> 79.4 µM (not active)"),
]

---

assay: inhibitors of intracellular T. cruzi replication, confirmation, NIH3T3 host cells, beta-gal luminescence (AID 2044); format: functional, cell-based;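 note: intracellular parasites grown in NIH/3T3 mouse fibroblasts as host cells; luminescent beta-galactosidase reporter signal from transgenic T. cruzi replicating inside host cells; inhibitors lower the luminescence signal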
Activity calls are given as the source filed them.

# molecular-string, EC50
records = [
    ("O=C(CNCCc1ccc(Cl)cc1)Nc1ccc(C(=O)N2CCCCC2)cc1", "0.502 µM (active)"),
    ("CCCOc1ccc(-c2nc(SCc3ccccc3)nc(O)c2C#N)cc1OC", "3.11 µM (active)"),
    ("COc1ccc2nc3c(O)n(/N=C/c4ccc(OC)c(CN5CCCC5)c4)c(C)nc-3c2c1", "< 0.1 µM (active)"),
    ("O=C(c1cc([N+](=O)[O-])cc([N+](=O)[O-])c1)N1CCN(Cc2ccc3c(c2)OCO3)CC1", "0.306 µM (active)"),
    ("O=C(Nc1ccc(Cl)c(Cl)c1)Nc1nc(-c2ccccc2)cs1", "1.52 µM (active)"),
    ("Cc1cc(C(=O)NNc2ccccc2F)no1", "2.26 µM (active)"),
]
